- test: Inhibition of FTase
attribute measured: pIC50
Simply state the number, no unit and no words.

Look over these answered cases.
>  <molecule>
N#Cc1ccc(Cn2cncc2COCc2ccc(C#N)cc2-c2cccc(Cl)c2)nc1

>  <attribute measured>
pIC50

>  <endpoint result>
8.77

$$$$
>  <molecule>
N#Cc1cn(Cc2cncn2Cc2ccc3c(c2)OCO3)cc1-c1cccc2ccccc12

>  <attribute measured>
pIC50

>  <endpoint result>
8.21

$$$$
>  <molecule>
N#Cc1ccc(Cn2cncc2COCc2ccc(Cl)cc2-c2cccc(Cl)c2)cc1

>  <attribute measured>
pIC50

>  <endpoint result>
9.21

$$$$

Prompt: Quick check: pIC50 of Cn1c(=O)cc(-c2cccc(Cl)c2)c2cc(C(N)c3cncn3Cc3ccc(C#N)cc3)ccc21 (stereo not given) ?
Response: 8.42
